Tested on: human red blood cells
ASSAY_INFO: Hemolytic activity
Type: cell-based
MEASUREMENT_SETUP: red cells of human, 1 h, 150
Square brackets hold non-standard residues; d marks the D form. Peptide text beside a SMILES is read from it. d1Nal = N[C@H](Cc1cccc2ccccc12)C(=O)O; dNle = CCCC[C@@H](N)C(=O)O; dDap = NC[C@@H](N)C(=O)O
MEASUREMENT_TYPE: %H (% Hemolysis at 150 µM) (%)
Express your answer in %, writing the number without its unit.

Q. // query %H (% Hemolysis at 150 µM) value for entry CCCC[C@@H](NC(=O)[C@@H](CCCCN)NC(=O)[C@@H](Cc1cccc2ccccc12)NC(=O)[C@@H](CN)NC(=O)[C@@H](Cc1ccccc1)NC(=O)[C@@H](Cc1cccc2ccccc12)NC(=O)[C@@H](CCCCN)NC(=O)[C@H](N)CCCCN)C(N)=O [Compound 10, kk(1-nal)f(dap)(1-nal)k(nle)-NH2] (H-[dK][dK][d1Nal][dF][dDap][d1Nal][dK][dNle]-NH2; N-terminus assumed)
A. 28

Q. Same question for CCCC[C@@H](NC(=O)[C@@H](CCCCN)NC(=O)[C@@H](Cc1cccc2ccccc12)NC(=O)[C@@H](C)NC(=O)[C@@H](Cc1ccccc1)NC(=O)[C@@H](Cc1cccc2ccccc12)NC(=O)[C@@H](CCCCN)NC(=O)[C@H](N)CCCCN)C(N)=O [Compound 5, kk(1-nal)fa(1-nal)k(nle)-NH2] (H-[dK][dK][d1Nal][dF][dA][d1Nal][dK][dNle]-NH2) please.
A. 47

Q. Same question for CCCC[C@@H](NC(=O)[C@@H](CCCCN)NC(=O)[C@@H](Cc1cccc2ccccc12)NC(=O)[C@@H](CCCCN)NC(=O)[C@@H](Cc1ccccc1)NC(=O)[C@@H](Cc1cccc2ccccc12)NC(=O)[C@@H](CCCNC(=N)N)NC(=O)[C@H](N)CCCCN)C(N)=O [Compound 34, kr(1-nal)fk(1-nal)k(nle)-NH2] (H-[dK][dR][d1Nal][dF][dK][d1Nal][dK][dNle]-NH2; N-terminus assumed) please.
A. 35

----------
Tested on: human red blood cells
ASSAY_INFO: Hemolytic activity
Type: cell-based
MEASUREMENT_SETUP: red cells of human, 1 h, 150
Square brackets hold non-standard residues; d marks the D form. Peptide text beside a SMILES is read from it. d1Nal = N[C@H](Cc1cccc2ccccc12)C(=O)O; dNle = CCCC[C@@H](N)C(=O)O
Lab note: compare %H (% Hemolysis at 150 µM) with 80%, writing T if less and F if equal or more.

Q. Hello, is %H (% Hemolysis at 150 µM) of the following molecule strictly smaller than 80%? CCCC[C@@H](NC(=O)[C@@H](CCCCN)NC(=O)[C@@H](Cc1cccc2ccccc12)NC(=O)[C@@H](CCCCN)NC(=O)[C@@H](Cc1ccccc1)NC(=O)[C@@H](C)NC(=O)[C@@H](CCCCN)NC(=O)[C@H](N)CCCCN)C(N)=O [Compound 3, kkafk(1-nal)k(nle)-NH2] (HELM PEPTIDE1{[dK].[dK].[dA].[dF].[dK].[O=C([C@@H](Cc1cccc2ccccc12)N[*:1])[*:2]].[dK].[CCCC[C@@H](N[*:1])C(=O)[*:2]].[am]}$$$$V2.0)
A. T

Q. Same question for CCCC[C@@H](NC(=O)[C@@H](Cc1cccc2ccccc12)NC(=O)[C@@H](Cc1cccc2ccccc12)NC(=O)[C@@H](CCCCN)NC(=O)[C@@H](Cc1ccccc1)NC(=O)[C@@H](Cc1cccc2ccccc12)NC(=O)[C@@H](CCCCN)NC(=O)[C@H](N)CCCCN)C(N)=O [Compound 17, kk(1-nal)fk(1-nal)(1-nal)(nle)-NH2] (H-[dK][dK][d1Nal][dF][dK][d1Nal][d1Nal][dNle]-NH2; N-terminus assumed) please.
A. F

Q. Same question for CCCC[C@@H](NC(=O)[C@@H](CCCCN)NC(=O)[C@@H](Cc1cccc2ccccc12)NC(=O)[C@@H](CCCCN)NC(=O)[C@@H](Cc1ccccc1)NC(=O)[C@@H](Cc1cccc2ccccc12)NC(=O)[C@@H](CCCCN)NC(=O)[C@H](N)CCCCN)C(N)=O [Compound D2D, kk(1-nal)fk(1-nal)k(nle)-NH2] (H-[dK][dK][d1Nal][dF][dK][d1Nal][dK][dNle]-NH2) please.
A. T

Q. Same question for CCCC[C@@H](NC(=O)[C@H](NC(=O)[C@@H](Cc1cccc2ccccc12)NC(=O)[C@@H](CCCCN)NC(=O)[C@@H](Cc1ccccc1)NC(=O)[C@@H](Cc1cccc2ccccc12)NC(=O)[C@@H](CCCCN)NC(=O)[C@H](N)CCCCN)C(C)C)C(N)=O [Compound 24, kk(1-nal)fk(1-nal)v(nle)-NH2] (H-[dK][dK][d1Nal][dF][dK][d1Nal][dV][dNle]-NH2; N-terminus assumed) please.
A. T

Q. Same question for CCCC[C@@H](NC(=O)[C@@H](CO)NC(=O)[C@@H](Cc1cccc2ccccc12)NC(=O)[C@@H](CCCCN)NC(=O)[C@@H](Cc1ccccc1)NC(=O)[C@@H](Cc1cccc2ccccc12)NC(=O)[C@@H](CCCCN)NC(=O)[C@H](N)CCCCN)C(N)=O [Compound 21, kk(1-nal)fk(1-nal)s(nle)-NH2] (H-[dK][dK][d1Nal][dF][dK][d1Nal][dS][dNle]-NH2; N-terminus assumed) please.
A. F

----------
Kindly state %H (% Hemolysis at 150 µM) for each of the entries shown.
Tested on: human red blood cells
ASSAY_INFO: Hemolytic activity
Type: cell-based
MEASUREMENT_SETUP: red cells of human, 1 h, 150
Experimental: The percentage of hemolysis at 150 μM was determined for all compounds as previously described. Briefly, two-fold serial dilutions (2.35 to 150 μM) of compounds in PBS were mixed with a 0.5% v/v suspension of fresh human red blood cells (RBC) in the same buffer. […] Absorbance at 414 nm was determined and normalised with respect to a negative (PBS, 0%) and positive (melittin, 100%) control.
Square brackets hold non-standard residues; d marks the D form. Peptide text beside a SMILES is read from it. d1Nal = N[C@H](Cc1cccc2ccccc12)C(=O)O; dNle = CCCC[C@@H](N)C(=O)O
Express your answer in %, writing the number without its unit.

Q. // query %H (% Hemolysis at 150 µM) value for entry CCCC[C@@H](NC(=O)[C@@H](CCCCN)NC(=O)[C@@H](Cc1cccc2ccccc12)NC(=O)[C@@H](CCCCN)NC(=O)[C@@H](Cc1ccccc1)NC(=O)[C@@H](Cc1cccc2ccccc12)NC(=O)[C@H](N)CCCCN)C(N)=O [Compound 27, k(1-nal)fk(1-nal)k(nle)-NH2] (H-[dK][d1Nal][dF][dK][d1Nal][dK][dNle]-NH2; N-terminus assumed)
A. 49

Q. Same question for NCCCC[C@@H](N)C(=O)N[C@H](CCCCN)C(=O)N[C@H](Cc1cccc2ccccc12)C(=O)N[C@H](Cc1ccccc1)C(=O)N[C@H](CCCCN)C(N)=O [Compound 32, kk(1-nal)fk-NH2] (HELM PEPTIDE1{[dK].[dK].[O=C([C@@H](Cc1cccc2ccccc12)N[*:1])[*:2]].[dF].[dK].[am]}$$$$V2.0; N-terminus assumed) please.
A. 5

Q. Same question for CCCC[C@@H](NC(=O)[C@@H](Cc1cccc2ccccc12)NC(=O)[C@@H](CCCCN)NC(=O)[C@@H](Cc1ccccc1)NC(=O)[C@@H](Cc1cccc2ccccc12)NC(=O)[C@@H](CCCCN)NC(=O)[C@H](N)CCCCN)C(=O)N[C@H](CCCCN)C(N)=O [Compound 26, kk(1-nal)fk(1-nal)(nle)k-NH2] (H-[dK][dK][d1Nal][dF][dK][d1Nal][dNle][dK]-NH2; N-terminus assumed) please.
A. 18

Q. Same question for CCCC[C@@H](NC(=O)[C@@H](CCCCN)NC(=O)[C@@H](Cc1cccc2ccccc12)NC(=O)[C@@H](Cc1cccc2ccccc12)NC(=O)[C@@H](Cc1ccccc1)NC(=O)[C@@H](Cc1cccc2ccccc12)NC(=O)[C@@H](CCCCN)NC(=O)[C@H](N)CCCCN)C(N)=O [Compound 9, kk(1-nal)f(1-nal)(1-nal)k(nle)-NH2] (H-[dK][dK][d1Nal][dF][d1Nal][d1Nal][dK][dNle]-NH2; N-terminus assumed) please.
A. 20

----------
System: human red blood cells
ASSAY_INFO: Hemolytic activity
Type: cell-based
MEASUREMENT_SETUP: red cells of human, 1 h, 150
Square brackets hold non-standard residues; d marks the D form. Peptide text beside a SMILES is read from it. d1Nal = N[C@H](Cc1cccc2ccccc12)C(=O)O; dNle = CCCC[C@@H](N)C(=O)O
Kindly state %H (% Hemolysis at 150 µM) for each of the entries shown.
Express your answer in %, writing the number without its unit.

Q. // query %H (% Hemolysis at 150 µM) value for entry NCCCC[C@@H](N)C(=O)N[C@H](CCCCN)C(=O)N[C@H](Cc1cccc2ccccc12)C(=O)N[C@H](Cc1ccccc1)C(=O)N[C@H](CCCCN)C(=O)N[C@H](Cc1cccc2ccccc12)C(=O)N[C@H](CCCCN)C(N)=O [Compound 30, kk(1-nal)fk(1-nal)k-NH2] (HELM PEPTIDE1{[dK].[dK].[O=C([C@@H](Cc1cccc2ccccc12)N[*:1])[*:2]].[dF].[dK].[O=C([C@@H](Cc1cccc2ccccc12)N[*:1])[*:2]].[dK].[am]}$$$$V2.0; N-terminus assumed)
A. 11

Q. Same question for CCCC[C@@H](NC(=O)[C@@H](CCCCN)NC(=O)[C@@H](C)NC(=O)[C@@H](CCCCN)NC(=O)[C@@H](Cc1ccccc1)NC(=O)[C@@H](Cc1cccc2ccccc12)NC(=O)[C@@H](CCCCN)NC(=O)[C@H](N)CCCCN)C(N)=O [Compound 6, kk(1-nal)fkak(nle)-NH2] (HELM PEPTIDE1{[dK].[dK].[O=C([C@@H](Cc1cccc2ccccc12)N[*:1])[*:2]].[dF].[dK].[dA].[dK].[CCCC[C@@H](N[*:1])C(=O)[*:2]].[am]}$$$$V2.0; N-terminus assumed) please.
A. 10

Q. Same question for CCCC[C@@H](NC(=O)[C@@H](Cc1ccccc1)NC(=O)[C@@H](Cc1cccc2ccccc12)NC(=O)[C@@H](CCCCN)NC(=O)[C@@H](Cc1ccccc1)NC(=O)[C@@H](Cc1cccc2ccccc12)NC(=O)[C@@H](CCCCN)NC(=O)[C@H](N)CCCCN)C(N)=O [Compound 20, kk(1-nal)fk(1-nal)f(nle)-NH2] (H-[dK][dK][d1Nal][dF][dK][d1Nal][dF][dNle]-NH2; N-terminus assumed) please.
A. 91
